Tested on: IGROV1 ovarian
Experiment: NCI-60 one-dose screen, 48 h
Conditions: 10 µM unless noted
The panel holds about 83,000 compounds, 20% with a hit somewhere; the sample as a whole holds those more often. Calls of active or inactive are those of the source. The calls were made as follows: active = growth percent below 10; inactive = the rest.
Entry note: the call must match one of Yes (active), No (inactive)

Test call for this molecule, please: Cc1nc2sccn2c1-c1nnc(SCC(C)C)o1
No

Test call for this molecule, please: Cc1oc(-c2ccccc2)nc1CN[C@@H]1C[C@@H]2C[C@H]([C@H]1C)C2(C)C
No

Test call for this molecule, please: COc1cncc(-c2ccc3ncnc(N4CCc5ccc(Cl)cc54)c3c2)c1
Yes

Test call for this molecule, please: Cc1ccc(C(=O)Nc2cc(-n3cnc(F)c3)cc(C(F)(F)F)c2)cc1C#Cc1cnc2cccnn12
No

Test call for this molecule, please: COc1cc(C2CC(c3ccc(C(F)(F)F)cc3)=Nc3c(N)nc(N)nc3N2)ccc1Oc1nc(Nc2ccc(F)cc2)nc(N(C)C)n1 (centres undefined)
No

Test call for this molecule, please: CC(=O)Nc1ccc(S(=O)(=O)Nc2ccc(-c3ccc4c(c3)NC(=O)/C4=C\c3ccc[nH]3)cc2)cc1
No

Test call for this molecule, please: Cc1ccc(-c2cc(-c3ccccc3)[nH]c(=O)c2C#N)cc1
No

Test call for this molecule, please: Cc1nn(-c2ccccc2)c2nc(C)n(C(=O)N/N=C/c3cccc([N+](=O)[O-])c3)c(=O)c12
No

Test call for this molecule, please: COc1ccc(SC2c3cc(OC)ccc3Oc3nc(N)c(C#N)c(N)c32)cc1 (centres undefined)
No

----------
For each of the molecules below, state its growth.
Tested on: K-562 leukemia
Assay: NCI-60 one-dose screen, 48 h (100 = growth as untreated, 0 = no growth, -100 = all killed)
Conditions: 10 µM unless noted
Compounds without any hit were thinned out: in the full panel of roughly 83,000, 20% have a hit.
Numbers only here, please. The scale is %.

Lab book: growth of CCCn1c(NC(=O)c2cccc(C(N)=O)c2)nc2cc(CN3CCCCC3)ccc21 noted as 72.3

Lab book: growth of O=C(Nc1nc2ccc([N+](=O)[O-])cc2s1)Nc1ccccc1F noted as 7.7

Lab book: growth of COc1cc(/C=C/C(=O)c2cnn(-c3cc(=O)[nH]c4ccc(C)cc34)c2C)cc(OC)c1OC noted as 0.896

Lab book: growth of CN(C)CCOc1ccc(C(=O)C2[C@H](c3ccc(Cl)cc3)[C@@H](c3ccccc3)NC23C(=O)Nc2ccc(Cl)cc23)cc1 (some centres undefined) noted as -76.1

Lab book: growth of COc1ccc(-n2c(NC(=O)N3CCN(C)CC3)c(C#N)c3ccccc32)cc1 noted as 58.6

Lab book: growth of COc1cc(CNC(=O)C[C@H](C)CCC=C(C)C)ccc1OCc1cn(-c2ccc(Br)cc2)nn1 noted as 66.3

Lab book: growth of Cc1ccc(-c2cc(C(=O)N=Nc3c(O)[nH]c4ccc(F)cc34)c3ccccc3n2)cc1 noted as 60.8

Lab book: growth of N#Cc1c(-c2ccc(F)cc2)nc(SCc2ccc(F)cc2)nc1N1CCNCC1 noted as 0.722

Lab book: growth of COc1ccc(-c2nnc3c(/C=C/c4ccc(Br)cc4)nc4ccccc4n23)cc1 noted as 10.6

----------
Tested on: NCI-H322M lung
Experiment: NCI-60 one-dose screen, 48 h (100 = growth as untreated, 0 = no growth, -100 = all killed)
Settings: 10 µM unless noted
Compounds without any hit were thinned out: in the full panel of roughly 83,000, 20% have a hit.
growth under 80% gets label 1, anything at or over 80% gets label 0.

# strict comparison: is reported growth < 80%? input = O=C(N/N=C/c1ccc(Br)o1)c1[nH]c2ccc(Br)cc2c1-c1ccccc1
label 1

# strict comparison: is reported growth < 80%? input = CCOc1ccccc1[C@H]1C(C(=O)c2ccc(Cl)cc2)C2(N[C@@H]1c1ccccc1)C(=O)Nc1ccccc12 (stereo partly drawn)
label 1

# strict comparison: is reported growth < 80%? input = N#Cc1c(-c2ccc(F)cc2)nc(SCc2ccc(F)cc2)nc1N1CCNCC1
label 1

# strict comparison: is reported growth < 80%? input = COc1cc(CNC(=O)C[C@H](C)CCC=C(C)C)ccc1OCc1cn(-c2ccc(Br)cc2)nn1
label 0

# strict comparison: is reported growth < 80%? input = OCCn1cc(-c2nc3ccc4[nH]ncc4c3c3c2CCCC3)cn1
label 1

# strict comparison: is reported growth < 80%? input = COc1cc(CNC(=O)C[C@H](C)CCC=C(C)C)ccc1OCc1cn(-c2ccc(Cl)cc2Cl)nn1
label 0

# strict comparison: is reported growth < 80%? input = COc1ccc(/C=C/c2nc3ccccc3n3c(-c4cccc([N+](=O)[O-])c4)nnc23)cc1
label 1

# strict comparison: is reported growth < 80%? input = CCCn1c(NC(=O)c2cccc(C(N)=O)c2)nc2cc(CN3CCCCC3)ccc21
label 0

# strict comparison: is reported growth < 80%? input = COc1cc(/C=C/C(=O)c2cnn(-c3cc(=O)[nH]c4ccccc34)c2C)cc(OC)c1OC
label 1

# strict comparison: is reported growth < 80%? input = CN(C)CCOc1ccc(C(=O)C2[C@H](c3ccc(Cl)cc3)[C@@H](c3ccccc3)NC23C(=O)Nc2ccc(Cl)cc23)cc1 (stereo partly drawn)
label 1

# strict comparison: is reported growth < 80%? input = O=C1/C(=C/C=C/c2ccco2)SC(=S)N1CC(=S)C1C=CS(=O)(=O)C1 (stereo not drawn)
label 1

# strict comparison: is reported growth < 80%? input = CN(C)c1nc(NCCNS(=O)(=O)c2ccc(C(=O)/C=C/c3ccc(F)cc3)cc2)nc(N2CCOCC2)n1
label 0

# strict comparison: is reported growth < 80%? input = O=C(Nc1ccc(-c2ccc3c(c2)NC(=O)/C3=C\c2ccc[nH]2)cc1)Nc1ccc(Cl)c(C(F)(F)F)c1
label 1

# strict comparison: is reported growth < 80%? input = Nc1cc2ccccc2c(=O)n1NC(=O)c1ccc(Br)cc1
label 1

# strict comparison: is reported growth < 80%? input = COc1ccc(C2=Nc3c(N)nc(N)nc3NC(c3ccc(Oc4nc(Nc5ccc(F)cc5)nc(N(C)C)n4)c(OC)c3)C2)cc1 (stereo not drawn)
label 0

# strict comparison: is reported growth < 80%? input = COc1cccc(-c2ccc(/C=N/NC(=O)c3[nH]c4ccc(Br)cc4c3-c3ccccc3)s2)c1
label 1

# strict comparison: is reported growth < 80%? input = Cn1cc(-c2cc3nc(-c4cn(C)c5ncccc45)cc(N)n3n2)c2cc(F)ccc21
label 1
